I'd be grateful if you could share measured IC50 for these entries.
tested on: SK-BR-3 (HER2 3+); experiment: Cell toxicity testing of moiety-drug conjugates (CCK-8); type: cell-based; details: 0-500 nM
Give bare numbers, in nM.

Solved cases (3 shown):
Trastuzumab-Mal-Val-Cit-PAB-PEG4-Eribulin [A701-L111-P204-D08]: 0.012
Trastuzumab-Mal-Val-Cit-PAB-(Eribulin)2 [A701-L107-P204-D08]: 0.0172
Trastuzumab-Mal-Val-Cit-PAB-(PEG4-Eribulin)2 [A701-L106-P204-D08]: 0.0216

(Q) Find IC50 for Trastuzumab-Mal-Val-Cit-PAB-PEG4-Eribulin [A701-L111-P204-D04] on SK-BR-3 (HER2 3+) and write it down.
(A) 0.012

---

Give measured IC50 for each item. Keep answers brief.
tested on: MDA-MB-436 (HER2−); test: Cell toxicity testing of moiety-drug conjugates (CCK-8); type: cell-based; conditions: 0-500 nM

Batch: IC50 for all items listed.
1. Trastuzumab-Mal-Val-Cit-PAB-(PEG4-Eribulin)2 [A701-L106-P204-D08]
2. Trastuzumab-Mal-Val-Cit-PAB-PEG4-Eribulin [A701-L111-P204-D08]
3. Trastuzumab-Mal-Val-Cit-PAB-PEG4-Eribulin [A701-L111-P204-D04]

(A)
14.6 nM
33 nM
> 250 nM

---

system: MDA-MB-231 (HER2−); test: Cell toxicity testing of moiety-drug conjugates (CCK-8); type: cell-based; settings: 0-500 nM
Hi there, I'd appreciate the recorded pIC50 for every entry that follows.
Give bare numbers, as −log10 of the molar value.

Trastuzumab-Mal-Val-Cit-PAB-PEG4-Eribulin [A701-L111-P204-D04]: 6.83

Consider the record given below.
(Q) Kindly indicate its recorded pIC50. Item: Trastuzumab-Mal-Val-Cit-PAB-(PEG4-Eribulin)2 [A701-L106-P204-D08]
(A) 7.12
